From: paper PMC10023787

Biological target: MMP-9 (Homo sapiens)
Construct: purchased Sino Biological 10327-HNAH
Sequence (P14780 107-707 limits assumed): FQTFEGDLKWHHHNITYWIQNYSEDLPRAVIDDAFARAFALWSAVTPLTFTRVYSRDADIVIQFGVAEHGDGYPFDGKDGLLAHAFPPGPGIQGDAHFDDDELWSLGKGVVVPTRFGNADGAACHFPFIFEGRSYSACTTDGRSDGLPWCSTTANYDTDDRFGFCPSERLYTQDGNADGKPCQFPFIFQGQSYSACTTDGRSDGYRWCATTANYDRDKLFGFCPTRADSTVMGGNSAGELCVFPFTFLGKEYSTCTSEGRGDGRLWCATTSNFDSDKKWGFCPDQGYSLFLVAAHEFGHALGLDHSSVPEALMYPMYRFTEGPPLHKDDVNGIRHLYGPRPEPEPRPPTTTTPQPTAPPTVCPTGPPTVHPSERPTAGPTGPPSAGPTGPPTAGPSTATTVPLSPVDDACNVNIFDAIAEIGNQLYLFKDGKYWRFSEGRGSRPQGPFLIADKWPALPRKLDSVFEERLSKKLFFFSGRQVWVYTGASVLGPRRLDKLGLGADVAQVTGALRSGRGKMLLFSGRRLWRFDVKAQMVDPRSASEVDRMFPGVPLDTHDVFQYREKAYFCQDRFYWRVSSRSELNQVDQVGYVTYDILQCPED
Test: MMP-9 inhibition assay (fluorogenic peptide substrate)
Format: biochemical
Parameters: scale not given here
Conditions: MMP-9; concentration 9.75 µM
readout: remaining enzyme activity (% of control)

O=C(CNC(=O)NC12CC3CC(CC(C3)C1)C2)NCCOCCOCCNC(=O)c1cncc(O)c1
93.32
Cc1cc(=O)[nH]c(-n2nc(C)c(CCC(=O)NCCCCCCCCNC(=O)c3cncc(O)c3)c2C)n1
92.01
O=C(C=CCCCCNC(=O)c1cncc(O)c1)CC(=O)NCC12CC3CC(CC(C3)C1)C2
97.37
Cc1cc(=O)[nH]c(-n2nc(C)c(CCC(=O)NCCOCCOCCNC(=O)CCC(=O)NCc3c[nH]nn3)c2C)n1
93.95
Cc1cc(=O)[nH]c(-n2nc(C)c(CCC(=O)NCc3c[nH]nn3)c2C)n1
100.27

* * *

Biological target: bovine trypsin (Bos taurus, UniProt P00760)
Construct: purchased Sigma-Aldrich T8003
Sequence (P00760 24-246): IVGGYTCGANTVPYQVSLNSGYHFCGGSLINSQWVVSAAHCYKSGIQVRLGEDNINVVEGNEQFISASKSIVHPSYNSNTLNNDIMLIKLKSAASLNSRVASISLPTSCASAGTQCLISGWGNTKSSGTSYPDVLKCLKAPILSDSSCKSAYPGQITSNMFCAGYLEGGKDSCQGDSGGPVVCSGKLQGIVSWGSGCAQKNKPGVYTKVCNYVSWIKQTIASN
Assay: Trypsin inhibition assay (proteolytic activity on BApNA)
Format: biochemical
Conditions: Concentration 64 nM; fraction of uninhibited activity; read-out: mean (Figure 3c, dose-response, relative trypsin activity)
readout: remaining activity at 0.064 µM (%)

N=C(N)c1ccc(CNC(=O)C2CCC(C(=O)NCCNC(=S)Nc3cccc(I)c3)CC2)cc1 (centres unmarked)
108
N=C(N)c1ccc(CNCc2ccc(C(=O)NCCNC(=S)Nc3cccc(I)c3)cc2)cc1
109
S=C=Nc1ccccc1I [Compound B, 2-iodophenyl isothiocyanate, reference compound]
107
N=C(N)c1ccc(CN)cc1 [4-Aminomethyl benzamidine, 4-aminomethyl benzamidine, reference compound]
110
N=C(N)c1ccc(CNC(=S)Nc2cccc(I)c2)cc1
110

* * *

Target: MMP-9 (Homo sapiens)
Construct: purchased Sino Biological 10327-HNAH
Experiment: MMP-9 inhibition assay (fluorogenic peptide substrate)
Type: biochemical
Settings: Figure 5d; fragment combination joined by linker; n.d: not detected; read-out: MMP9 IC50
readout: IC50 (µM)

Record excerpt, results attached:
Cn1c(O)nc2cc(C(=O)NCCOCCOCCNC(=O)Cn3cnc4c(oc5ccccc54)c3=O)cnc21
283
O=C(Cn1cnc2c(oc3ccccc32)c1=O)NCc1c[nH]nn1
143
Cc1cc(=O)[nH]c(-n2nc(C)c(CCC(=O)NCCCCCCCCNC(=O)c3cncc(O)c3)c2C)n1
261
O=C(Cn1cnc2c(oc3ccccc32)c1=O)NCCOCCOCCNC(=O)c1cncc(O)c1
99.6
O=C(CSCCNC(=O)c1cncc(O)c1)NCCNC(=O)Cn1cnc2c(oc3ccccc32)c1=O
35.3
O=C(C=CCCCCC(=O)NCc1c[nH]nn1)CC(=O)NCC12CC3CC(CC(C3)C1)C2
115
O=C(CNC(=O)NC12CC3CC(CC(C3)C1)C2)NCCCCCCCCNC(=O)c1cncc(O)c1
247
O=C(/C=C/CCCCNC(=O)c1cncc(O)c1)CC(=O)NCC12CC3CC(CC(C3)C1)C2
77.4

A. Cc1cc(=O)[nH]c(-n2nc(C)c(CCC(=O)NCCSCC(=O)NCCNC(=O)c3cnc4c(c3)nc(O)n4C)c2C)n1
B. Cn1c(O)nc2cc(C(=O)NCC34CC5CC(CC(C5)C3)C4)cnc21
C. O=C(/C=C/CCCCNC(=O)c1cncc(O)c1)CC(=O)NCCNC(=O)Cn1cnc2c(oc3ccccc32)c1=O
D. Cc1cc(=O)[nH]c(-n2nc(C)c(CCC(=O)NCCNC(=O)CSCCNC(=O)c3cncc(O)c3)c2C)n1
Problem: Put the items in order so that reported IC50 rises from first to last. Output the labels ranked as instructed.
Result: C, D, B, A
(C: 45.9 µM, D: 80.5 µM, B: 234 µM, A: 358 µM)

I. Cc1cc(=O)[nH]c(-n2nc(C)c(CCC(=O)NCCCCCCCCNC(=O)CCC(=O)NCc3c[nH]nn3)c2C)n1
II. Cn1c(O)nc2cc(C(=O)NCCCCC=CC(=O)CC(=O)NCCNC(=O)Cn3cnc4c(oc5ccccc54)c3=O)cnc21
Problem: Lower value of IC50 belongs to which: I or II ? The response must carry the label of the picked entry.
Result: II
(II: 131 µM, I: 250 µM)
